# measurement_description: folding enthalpy; higher = less favourable; fluorescence melt of hairpins on a sequencing array, two-state fit
# assay_setup: sodium 0.088 M
endpoint: folding enthalpy (kcal/mol)

>>> numeric_readout("GCATGTCGAAAGACCTGC (((.(((....))).)))")
-37.4
>>> numeric_readout("GACAACGAAAGTTCTGTC ((((((....)))..)))")
-14.7
>>> numeric_readout("GGAAGCGGAAACGCCTCC (((.(((....))).)))")
-20
>>> numeric_readout("GCTGGTGGAAACATCGGC ((.(.((....)).).))")
-30.4
>>> numeric_readout("GTCCTGCGAAAGCAAGAC (((.(((....))).)))")
-23.3
>>> numeric_readout("GCAAATACGAAAGTATGC (((..(((....))))))")
-21.6
>>> numeric_readout("GCTGCGCGAAAGCTAAGC (((..((....))..)))")
-23.4
>>> numeric_readout("GCAACCGAAAGGTAATGC ((((((....)))..)))")
-20.1
>>> numeric_readout("GGGTACTCGAAAGAGCCC (((..(((....))))))")
-19.6
>>> numeric_readout("GTTAGCCGAAAGGCAAAC (((.(((....))).)))")
-18.1
>>> numeric_readout("GGCGAGTCGAAAGACGCC (((..(((....))))))")
-22.2
>>> numeric_readout("GACAGCGAAAGCTGAGTC ((((((....)))..)))")
-8.14
>>> numeric_readout("GATCGTCCAGACGATC ((((((....))))))")
-42.3
>>> numeric_readout("GATCATCAAAATGATC ((((((....))))))")
-33.3
>>> numeric_readout("GCGGAAACGAAAGTTCGC (((..(((....))))))")
-27.5
>>> numeric_readout("GGATGGCGAAAGCCTTCC (((.(((....))).)))")
-24.3
>>> numeric_readout("GATCTGAGCACAGATC ((((((....))))))")
-29
>>> numeric_readout("GTGTCAGGAAACCAACAC ((((..(....)..))))")
-13.5
>>> numeric_readout("GGGTCAGGAAACCAACCC ((((..(....)..))))")
-15.7
>>> numeric_readout("GAAAGCGAAAGCTGTTTC ((((((....)))..)))")
-9.68
>>> numeric_readout("GATCGAACCATCGATC ((((((....))))))")
-41.6
>>> numeric_readout("GATACAGGAAACTGCATC (((.(((....))).)))")
-28.4
>>> numeric_readout("GGTATCGGAAACGGTACC ((((.((....)).))))")
-40.6
>>> numeric_readout("GCCATCGAAAGATAGGGC ((((((....)))..)))")
-27.4
>>> numeric_readout("GATCGGAAACGATC (((((....)))))")
-28.7

###

# measurement_description: melting temperature; fluorescence melt of hairpins on a sequencing array, two-state fit, raised by 9.35 °C to match UV melts
# assay_setup: sodium 0.088 M
Classify by measured Tm: y if it is equal to or exceeds 50 °C, n if it is smaller.

>>> label("GTATTTCGAAAGAATTAC (((.(((....))).)))")
"n"
>>> label("GATCAACCCTTGATC ((((((...))))))")
"n"
>>> label("GATCCCCATGGGATC ((((((...))))))")
"y"
>>> label("GCGCAGTCGAAAGACCGC (((..(((....))))))")
"y"
>>> label("TAGCAGAAATGCTA (((((....)))))")
"n"
>>> label("GTCAAGGAAACTTGAC ((((((....))))))")
"y"
>>> label("GCTTAGGGAAACCTAAGC (((((((....)))))))")
"y"
>>> label("GATCTATACTTAGATC ((((((....))))))")
"n"
>>> label("GCATTGCGAAAGCTAAGC ((.(.((....)).).))")
"n"
>>> label("GAGATCCGAAAGGACCTC (((.(((....))).)))")
"n"
>>> label("GATCGTAGGACGATC ((((((...))))))")
"y"
>>> label("GATCGTGCGACGATC ((((((...))))))")
"y"
>>> label("GGCATCGCGAAAGCGGCC (((..(((....))))))")
"y"
>>> label("CGCGGAATAATCCGCG ((((((....))))))")
"y"
>>> label("GTGCTTCCGAAAGGACAC (((..(((....))))))")
"n"
>>> label("GCGTAGATACGC ((((....))))")
"y"
>>> label("GCACAGCGAAAGCATTGC (((..((....))..)))")
"n"
>>> label("GCTGCTGGAAACAGCGGC ((.((((....)))).))")
"y"
>>> label("GCATAAGCGAAAGCTTGC (((..(((....))))))")
"n"
>>> label("GCGCGACCGAAAGGTCGC (((..(((....))))))")
"y"
>>> label("GATCCTTTCCAGGATC ((((((....))))))")
"y"
>>> label("GAGTACGGAAACGTATTC ((.((((....)))).))")
"n"
>>> label("GATCTACTCTAGATC ((((((...))))))")
"n"
>>> label("GGAAGCGAAAGCTAATCC ((((((....)))..)))")
"n"

Cited source for all entries: the array DNA melting data of Ke et al. (doi:10.1101/2024.01.08.574731)
